- System: RPMI 8226
- Protocol notes: sensitivity of leukemia/lymphoma cell line, 5 uM cut-off
- Type: cell-based
- Assay setup: Homo sapiens, read-out: sensitivity class by EC50
Recorded EC50 for the following compounds

# lookup: CC1(C)CCC(c2ccc(Cl)cc2)=C(CN2CCN(c3ccc(C(=O)NS(=O)(=O)c4ccc(N[C@H](CCN5CCOCC5)CSc5ccccc5)c(S(=O)(=O)C(F)(F)F)c4)cc3)CC2)C1 on RPMI 8226, EC50 = < 5 µM

Here CN(C)CC[C@H](CSc1ccccc1)Nc1ccc(S(=O)(=O)NC(=O)c2ccc(N3CCN(Cc4ccccc4-c4ccc(Cl)cc4)CC3)cc2)cc1[N+](=O)[O-] was tested on RPMI 8226, and its EC50 came to < 5 µM

All values here come from patent US20100028889A1.
